- System: PRMT1 (protein arginine N-methyltransferase 1)
- experimental.details: PRMT1 binders on small-molecule microarrays, primary screen, biochemical, small-molecule microarray, 635 nm fluorescence (AID 1088);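 note: binding of Prmt1 protein to compounds spotted on small-molecule microarray slides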
- test.conditions: small-molecule microarray binding, higher = more signal
Please mark Y if the recorded composite z-score is equal to or greater than 1, and N if it falls below.

Take a look at these entries with their results.
# compound, category.label
records = [
    ("CC(C)(C)OC(=O)CC[C@]1(C(=O)N2CCOCC2)N=C(c2ccc(OCCCO)cc2)O[C@H]1c1ccccc1CN=[N+]=[N-]", "Y"),
    ("COCCOC(=O)N1C(=O)[C@@]2(c3cc(C#CC4(O)CCCCCC4)ccc31)[C@H](c1ccc(OCCO)cc1)N1[C@H](c3ccccc3)[C@H](c3ccccc3)OC(=O)[C@H]1[C@@H]2C(N)=O", "Y"),
    ("CCCCCN1CC=CC23O[C@@H]4C=CCOC(=O)[C@@H]4[C@H]2C(=O)N(CCCCCO)[C@@H]3C1=O (stereo partly drawn)", "N"),
    ("NC(=O)[C@@]1(CCS(=O)(=O)c2ccccc2)COC(c2ccc(OCCCO)cc2)=N1", "N"),
    ("COCCOC(=O)N1C(=O)[C@@]2(c3cc(C#Cc4ccc(OC)cc4)ccc31)[C@H](C(=O)N1CCCCCCC1)[C@H]1C(=O)O[C@H](c3ccccc3)[C@H](c3ccccc3)N1[C@@H]2c1ccccc1OCCO", "Y"),
]

# input for lookup
Prompt: Is it the case that COCCOC(=O)N1C(=O)[C@@]2(c3cc(C#CCC(C(=O)OC)C(=O)OC)ccc31)[C@H](C(N)=O)[C@H]1C(=O)O[C@H](c3ccccc3)[C@H](c3ccccc3)N1[C@@H]2c1ccc(OCCO)cc1 has composite z-score reaching or exceeding 1?
Completion: Y

###

- experimental.details: small-molecule binders of probe aInhba, primary screen, biochemical, small-molecule microarray, 635/667 nm fluorescence (AID 1148);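 note: score merges 667nm spot fluorescence with signal-to-noise for antibody binding to printed compounds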
- test.conditions: higher = more signal
Listed next: entries and their corresponding composite z-score.
The answer should be written as a number, with no unit following it.

Example cases with answers are listed next.
# molecule, meas.value
rows = [
    ("COc1ccc(NC(=O)O[C@H]2[C@H](OC(=O)Nc3ccc4c(c3)OCO4)[C@H](OC(=O)Nc3ccc4c(c3)OCO4)[C@@H](OC)O[C@@H]2CO)cc1", -0.0131),
    ("COCCn1c(C(=O)N2CCCC2)cc2c1C[C@H]1CN(C(=O)c3ccccc3)[C@@](Cc3ccccc3)(C(=O)OC)[C@@H]21", 0.679),
    ("Cc1c(-c2ccc(-c3ccc(Cl)c(Cl)c3)o2)nc(-c2ccccc2)c2c1CO[Si]2(C(C)C)C(C)C", -0.179),
    ("[N-]=[N+]=NCc1ccccc1C[C@]1(C(=O)N2CCOCC2)N=C(c2ccc(OCCCO)cc2)O[C@H]1c1ccccc1CN=[N+]=[N-]", 1.28),
]

Prompt: Recall and state the measured composite z-score for [N-]=[N+]=NCc1ccccc1C[C@]1(C(=O)N2CCCCC2)N=C(c2ccc(OCCCO)cc2)O[C@H]1c1ccccc1 .
Completion: -0.0471

Prompt: Recall and state the measured composite z-score for COCCCNC(=O)[C@@]1(Sc2ccc(C)cc2)CC(=O)N(C2CCCCC2)[C@@H]1c1ccc(CO)cc1I .
Completion: 0.541

Prompt: Recall and state the measured composite z-score for O=c1cccc(-c2ccccc2C(F)(F)F)o1 .
Completion: 0.763

Prompt: Recall and state the measured composite z-score for C=CC[C@]1(C(=O)N(C)C)COC(c2ccc(OCCCO)cc2)=N1 .
Completion: 0.3

Prompt: Recall and state the measured composite z-score for C[C@H]1NC(=O)C([C@@H](C)OCc2ccccc2)NC(=O)[C@@]23C(=O)N[C@@H](Cc4ccccc4)C2[C@H](C)[C@@]2(C)O[C@H]2C3/C=C/C/C=C\CNC1=O (stereo not given in full) .
Completion: -0.179

Prompt: Recall and state the measured composite z-score for CC(C)C[C@H]1NC(=O)[C@H](Cc2ccccc2)NC(=O)[C@@]23C(=O)N[C@@H](Cc4ccccc4)C2[C@H](C)[C@@]2(C)O[C@H]2C3/C=C/C/C=C\CNC1=O (stereo not given in full) .
Completion: -0.0552

Prompt: Recall and state the measured composite z-score for C=C(CCCC)/C(=C/C[C@H](OC(C)=O)c1cccc(OCCO)c1)c1cc(C(=O)OC)ccc1OC .
Completion: -0.0059

Prompt: Recall and state the measured composite z-score for CN(C)CCCNC(=O)[C@@H]1c2ccccc2C(=O)N(C2Cc3ccccc3C2)[C@H]1c1ccc(CO)cc1 .
Completion: 0.217

Prompt: Recall and state the measured composite z-score for COc1cc(OC)c(C(O)C2C=CC3C(=O)N(c4ccccc4)C(=O)C3N2Nc2ccccc2F)cc1Br (stereo not given) .
Completion: 0.206

Prompt: Recall and state the measured composite z-score for CN(C)C(=O)[C@@]1(CCS(=O)(=O)c2ccccc2)N=C(c2ccc(OCCCO)cc2)O[C@H]1c1ccccc1N=[N+]=[N-] .
Completion: 0.0569

Prompt: Recall and state the measured composite z-score for COCC1=C([C@H](O)CCc2ccccc2)[C@H](CO)n2c(=O)n(-c3ccccc3)c(=O)n2C1 .
Completion: -0.154

###

Listed next: entries and their corresponding composite z-score.
- Tested on: Plasmodium falciparum Sir2 (PF13_0152, Sir2A)
- experimental.details: pfSir2 binders on small-molecule microarrays, primary screen, biochemical, small-molecule microarray, 635 nm fluorescence (AID 1098);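 note: score merges spot fluorescence intensity with its signal-to-noise ratio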
- test.conditions: small-molecule microarray binding, fluorescence 635 nm; higher = more signal
The answer should be written as a number, with no unit following it.

Example cases with answers are listed next.
# compound, composite z-score
rows = [
    ("[N-]=[N+]=NCc1ccccc1C[C@@]1(C(=O)O)N=C(c2ccc(OCCCO)cc2)O[C@@H]1c1ccccc1CN=[N+]=[N-]", 0.705),
    ("O=c1cccc(-c2ccccc2C(F)(F)F)o1", -0.722),
    ("CC(C)C[C@@H]1NC(=O)[C@@H]2C[C@H](C(=O)NCCCC[N+](C)(C)C)[C@H](c3ccc(O)cc3)N2C1=O", 1.39),
]

Prompt: Lab note: record composite z-score of Cc1c(NC(=O)/C(C#N)=C/c2ccc(Cl)cc2)c(=O)n(-c2ccccc2)n1C tested on Plasmodium falciparum Sir2 (PF13_0152, Sir2A).
Completion: 0.878

Prompt: Lab note: record composite z-score of COCCOC(=O)N1C(=O)[C@@]2(c3cc(C#CCCO)ccc31)[C@H](c1ccccc1OCCO)N1[C@H](c3ccccc3)[C@H](c3ccccc3)OC(=O)[C@H]1[C@@H]2C(=O)N1CCc2cc(OC)c(OC)cc2C1 tested on Plasmodium falciparum Sir2 (PF13_0152, Sir2A).
Completion: 1.12

Prompt: Lab note: record composite z-score of CN(C)CCCC[C@@H]1NC(=O)[C@@H]2C[C@H](C(=O)NCc3ccc(F)cc3)[C@H](c3ccc(O)cc3)N2C1=O tested on Plasmodium falciparum Sir2 (PF13_0152, Sir2A).
Completion: 1.56

Prompt: Lab note: record composite z-score of Cc1ccc(S[C@]2(C(=O)NC3CC3)CC(=O)N(Cc3cc(C(F)(F)F)cc(C(F)(F)F)c3)[C@@H]2c2ccc(CO)cc2I)cc1 tested on Plasmodium falciparum Sir2 (PF13_0152, Sir2A).
Completion: 1.8

Prompt: Lab note: record composite z-score of C[N+](C)(C)CCCCCCNC(=O)[C@@H]1C[C@@H]2C(=O)N[C@@H](Cc3ccccc3)C(=O)N2[C@@H]1c1ccc(O)cc1 tested on Plasmodium falciparum Sir2 (PF13_0152, Sir2A).
Completion: 1.61

Prompt: Lab note: record composite z-score of C=CCNC(=O)[C@@H]1[C@H]2C(=O)O[C@H](c3ccccc3)[C@H](c3ccccc3)N2[C@H](c2ccc(O)cc2)[C@@]12C(=O)Nc1ccc(C#CC3(O)CCCCCC3)cc12 tested on Plasmodium falciparum Sir2 (PF13_0152, Sir2A).
Completion: 1.1

###

- tested.target: Homeobox protein Hox-A13 (Mus musculus) (UniProt Q62424)
- Sequence (Q62424 whole entry, looked up): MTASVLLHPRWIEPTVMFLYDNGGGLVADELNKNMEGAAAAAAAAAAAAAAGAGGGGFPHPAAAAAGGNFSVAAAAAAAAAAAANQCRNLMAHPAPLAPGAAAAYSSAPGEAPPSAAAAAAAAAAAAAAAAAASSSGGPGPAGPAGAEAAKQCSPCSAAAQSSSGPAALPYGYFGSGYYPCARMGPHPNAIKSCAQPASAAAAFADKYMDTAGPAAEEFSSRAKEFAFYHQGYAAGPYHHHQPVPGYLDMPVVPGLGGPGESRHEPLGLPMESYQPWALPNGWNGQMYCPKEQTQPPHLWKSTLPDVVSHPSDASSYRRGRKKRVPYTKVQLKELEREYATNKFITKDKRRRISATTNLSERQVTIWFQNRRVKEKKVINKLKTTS
- experimental.details: inhibitors of HoxA13-DNA binding, primary screen, biochemical, fluorescence polarization, labeled oligonucleotide (AID 1185)
- test.conditions: 15 min, higher = more signal, called active from +8 up or from −8 down
outcome.measure: z-score
The answer should be written as a number, with no unit following it.

Prompt: Recall and state the measured z-score for CCOC(=O)C[C@H]1[C@H](OC(=O)c2ccc(C(=O)c3ccccc3)cc2)[C@@H](NC(=O)c2ccc3ccccc3c2)c2cc(OCCCO)ccc2N1C(=O)c1ccc2ccccc2n1 .
Completion: -1.96

Prompt: Recall and state the measured z-score for COc1ccc([Si](C)(C)[C@@H]2[C@@H](CCO)O[C@]3(C(=O)N(Cc4ccccc4)c4ccc(N5C(=O)c6ccccc6Oc6ccccc65)cc43)[C@H]2C)cc1 .
Completion: -1.08

Prompt: Recall and state the measured z-score for COCC(=C=CC[C@@H](O)c1cccc(OCCO)c1)C[C@@H](O)COCc1ccccc1 .
Completion: -3.67
